We begin with a simple list: items and their reported pIC50.
assay: Cytotoxicity against human SNU16 cells assessed as growth inhibition after 72 hrs by MTT assay; assay type: functional, cell-based; details: SNU-16, 72 h
Here pIC50 is given on a logarithmic scale as minus log10 of the concentration in mol/L.

[[record]]
compound = "Nc1ccccc1NC(=O)c1ccc(CNc2nccc(-c3cccnc3)n2)cc1 [MOCETINOSTAT]"
reported_endpoint = "pIC50"
quantitative_result = 6.85

[[record]]
compound = "COc1cc2c(c(OC)c1OC)-c1ccc(OC)c(=O)cc1[C@@H](NCc1ccc(C(=O)Nc3ccccc3N)cc1)CC2"
reported_endpoint = "pIC50"
quantitative_result = 8.70

[[record]]
compound = "COc1cc2c(c(OC)c1OC)-c1ccc(OC)c(=O)cc1[C@@H](NC(=O)c1cccc(C(=O)Nc3cc(-c4cccs4)ccc3N)c1)CC2"
reported_endpoint = "pIC50"
quantitative_result = 8.30


--- query ---
Request: Query (compound): COc1cc2c(c(OC)c1OC)-c1ccc(OC)c(=O)cc1[C@@H](NC(C)=O)CC2 [COLCHICINE] ; field requested: pIC50
Response: 8.30

====

We begin with a simple list: items and their reported pIC50.
test system: SJSA-1; experiment: Cytotoxicity against human SJSA1 cells assessed as growth inhibition after 72 hrs by MTT assay; assay type: functional, cell-based; details: SJSA-1, 72 h
Here pIC50 is given on a logarithmic scale as minus log10 of the concentration in mol/L.

[[record]]
compound = "Nc1ccccc1NC(=O)c1ccc(CNc2nccc(-c3cccnc3)n2)cc1 [MOCETINOSTAT]"
measured_on = "SJSA-1"
quantitative_result = 5.44

[[record]]
compound = "COc1cc2c(c(OC)c1OC)-c1ccc(OC)c(=O)cc1[C@@H](NC(=O)c1cccc(C(=O)Nc3cc(-c4cccs4)ccc3N)c1)CC2"
measured_on = "SJSA-1"
quantitative_result = 7.57

[[record]]
compound = "COc1cc2c(c(OC)c1OC)-c1ccc(OC)c(=O)cc1[C@@H](NC(C)=O)CC2 [COLCHICINE]"
measured_on = "SJSA-1"
quantitative_result = 8.10


--- query ---
Request: Enter reported pIC50 observed with SJSA-1 for COc1cc2c(c(OC)c1OC)-c1ccc(OC)c(=O)cc1[C@@H](NCc1ccc(C(=O)Nc3ccccc3N)cc1)CC2
Response: 8.05
